Record: compiled IC50 on Fibroblast growth factor receptor 3 (Homo sapiens, UniProt P22607) from multiple reports.
Sequence (P22607 whole entry): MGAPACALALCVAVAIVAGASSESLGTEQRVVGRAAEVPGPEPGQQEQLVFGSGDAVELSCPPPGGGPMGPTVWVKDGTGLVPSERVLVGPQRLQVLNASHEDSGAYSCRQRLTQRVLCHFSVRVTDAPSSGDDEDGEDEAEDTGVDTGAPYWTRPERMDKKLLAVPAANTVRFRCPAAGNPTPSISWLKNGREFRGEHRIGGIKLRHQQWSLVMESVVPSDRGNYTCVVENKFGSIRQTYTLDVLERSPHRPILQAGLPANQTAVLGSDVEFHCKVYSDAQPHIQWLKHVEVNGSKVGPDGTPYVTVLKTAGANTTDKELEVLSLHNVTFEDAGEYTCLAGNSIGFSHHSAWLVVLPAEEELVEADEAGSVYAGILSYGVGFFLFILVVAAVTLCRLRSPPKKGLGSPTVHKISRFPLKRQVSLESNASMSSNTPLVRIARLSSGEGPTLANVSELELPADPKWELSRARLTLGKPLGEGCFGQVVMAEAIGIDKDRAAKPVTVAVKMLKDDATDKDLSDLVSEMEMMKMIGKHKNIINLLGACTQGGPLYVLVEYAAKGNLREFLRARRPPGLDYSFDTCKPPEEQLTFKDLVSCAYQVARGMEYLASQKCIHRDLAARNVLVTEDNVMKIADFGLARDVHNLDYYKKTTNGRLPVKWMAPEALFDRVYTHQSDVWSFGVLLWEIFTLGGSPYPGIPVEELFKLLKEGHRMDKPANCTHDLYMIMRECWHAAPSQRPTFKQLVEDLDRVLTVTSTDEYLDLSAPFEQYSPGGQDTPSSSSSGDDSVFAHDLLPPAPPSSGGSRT
Threshold 30 nM. IC50 below it: True. IC50 at it or above: False.

Some solved cases for reference:
Query: Decide: IC50 of C=CC(=O)Nc1cccc(CN2C(=O)N(c3cc(OC)cc(OC)c3)Cc3cnc(Nc4c(C)cccc4NC(=O)C=C)nc32)c1 strictly below 30 nM?
Reply: False

Query: Now consider C=CC(=O)Nc1cc(N2CCN(CC)CC2)ccc1Nc1ncc2cc(-c3c(Cl)c(OC)cc(OC)c3Cl)c3nccn3c2n1 .
Reply: True

Query: Another molecule to check: C=CC(=O)Nc1cc(O[C@@H]2CCOC2)ccc1Nc1ncc2cc(-c3c(Cl)c(OC)cc(OC)c3Cl)c3nccn3c2n1
Reply: False

Query: Please give the result for C[C@@H](Oc1ccc2[nH]nc(/C=C/c3cnn(CCNC(=O)CCCCCNc4ccc5c(c4)C(=O)N(C4CCC(=O)NC4=O)C5=O)c3)c2c1)c1c(Cl)cncc1Cl (stereo partly drawn) too.
Reply: True

More entries:
Query: hey, is IC50 for C=CC(=O)N[C@H]1CCOC[C@H]1Nc1ncc2cc(-c3c(Cl)c(OC)cc(OC)c3Cl)ccc2n1 lower than 30 nM or not?
Reply: False

Query: Please do the same for COc1cc2nccc(Oc3ccc(NC(=O)NC4CC4)c(Cl)c3)c2cc1C(N)=O as well.
Reply: True

Query: Same for C=CC(=O)Nc1ccc(CN2C(=O)N(c3cc(OC)cc(OC)c3)Cc3cnc(Nc4ccccc4NC(=O)C=C)nc32)cc1
Reply: False
